- System: IGROV1 ovarian
- Method Summary: NCI-60 one-dose screen, 48 h
- Test Parameters: 10 µM unless noted
- Description: Growth inhibition of the IGROV1 human tumor cell line is measured as a screen for anti-cancer activity. Cells are grown in 96 well plates and exposed to the test compound for 48 hours. Compounds are tested at a single concentration, which is 10^-5 M for most compounds. The reported endpoint is percent growth (GI% or GIPRCNT), where numbers from 0 - 100% represent growth inhibition, and numbers from -100% - 0 represent cell death. For example, a value of 40 represents 60% growth inhibition. […]
Compounds without any hit were thinned out: in the full panel of roughly 83,000, 20% have a hit. Active and inactive are the calls of the source. The calls were made as follows: active = growth percent below 10; inactive = the rest.
Classes used: active, inactive

# Compound, Study Target, Class Assignment
data = [
    ("Cc1cc(NC(=O)C2c3ccccc3C(=O)N(CC(C)C)C2c2cccs2)no1 (stereo not drawn)", "IGROV1 ovarian", "inactive"),
    ("CCCCc1n(Cc2ccc3ccccc3n2)cc[n+]1Cc1ccc2ccccc2n1", "IGROV1 ovarian", "inactive"),
    ("COc1ccc(C2CC(c3ccc(Nc4ccnc5cc(Cl)ccc45)cc3)=NN2c2ccccc2)cc1 (stereo not drawn)", "IGROV1 ovarian", "inactive"),
    ("Cc1ccc2nc(CN(CCN(Cc3nc4ccc(C)cc4[nH]3)Cc3nc4ccc(C)cc4[nH]3)Cc3nc4ccc(C)cc4[nH]3)[nH]c2c1", "IGROV1 ovarian", "active"),
    ("N#Cc1c(NN)n(C2OC(CO)C(O)C2O)c2ncnc(N)c12 (stereo not drawn)", "IGROV1 ovarian", "active"),
    ("CCN(CC)Cc1cc(Nc2ccnc3cc(Cl)ccc23)cc(-c2ccc(Cl)cc2)c1O", "IGROV1 ovarian", "active"),
    ("C#CC[C@@H]1C[C@]2(C)[C@H]3CC[C@@H]4[C@H]5C(C(=C)C)CC[C@]5(C(=O)NCCN(CCN)CCN)CC[C@@]4(C)[C@]3(C)CC[C@H]2C(C)(C)[C@H]1OC(C)=O (stereo partly drawn)", "IGROV1 ovarian", "inactive"),
    ("Cc1cc(C)c2c(n1)sc1c(Nc3ccc(Cl)cc3Cl)ncnc12", "IGROV1 ovarian", "inactive"),
]

Each recorded value in this set is attributed to PubChem BioAssay (NCI).
